Molecular target: HIV-1 integrase wild-type (IN1-288) (Human immunodeficiency virus 1, UniProt P12497 P12497:1148-1435)
Experiment: inhibition; both activities 0.125
Parameter: pIC50
Friendly reminder that pIC50 comes from taking -log10 of the concentration in mol/L.

## Input // lookup pIC50 for TGGGAGGTGGGTCTG (structured_DNA, pPT (PS at first and last linkages)) [T30748]
## Output 6.90

Source listed as patent US6355785.
